Reported IC50 values are given for each entry in this list.
Target: OXA-45 (Pseudomonas aeruginosa, UniProt Q7WZC7)
Sequence (Q7WZC7 entry or part of it): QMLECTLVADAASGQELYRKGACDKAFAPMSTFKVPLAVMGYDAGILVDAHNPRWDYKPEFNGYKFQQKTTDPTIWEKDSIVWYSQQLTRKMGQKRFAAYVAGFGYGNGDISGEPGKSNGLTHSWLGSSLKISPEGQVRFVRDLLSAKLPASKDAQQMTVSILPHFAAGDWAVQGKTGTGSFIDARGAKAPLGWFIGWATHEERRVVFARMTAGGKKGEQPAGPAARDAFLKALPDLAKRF
Test: β-lactamase inhibition assay with nitrocefin substrate, OXA-45
Type: biochemical
Settings: nitrocefin 100 μM, 100 mM Na Phosphate/25 mM NaCO3 pH 7.0; read-out: IC50 (μM) class D OXA-45
Procedure: Compounds of the present application were evaluated as inhibitors of two Class B β-lactamases (IMP-1 and VIM-2) and two Class D β-lactamases OXA-10 and OXA-45). […] Two methods were used for measurement of β-lactamase activity, based on the use of the substrate nitrocefin. The first was carried out in a cuvette (final volume 1 ml, 25° C.) with the aid of a Cary 5 spectrophotometer, and second was with the use of a Molecular Devices Spectramax 190 96 well plate reader (final volume 100 μl, 30° C.). […]
attribute-measured: IC50 (µM)

[[record]]
mol_smiles = "CC(C)(C)c1ccc(C(=O)N/N=C/c2ccccc2[N+](=O)[O-])cc1"
limit_operator = ">"
val = 10

[[record]]
mol_smiles = "CC(C)(C)c1ccc(C(=O)N/N=C/c2c(O)ccc3ccccc23)cc1"
limit_operator = "="
val = 1.7

[[record]]
mol_smiles = "O=C(N/N=C/c1ccccc1O)c1ccccc1O"
limit_operator = ">"
val = 40

[[record]]
mol_smiles = "CC(C)(C)c1ccc(C(=O)N/N=C/c2ccccc2O)cc1"
limit_operator = "="
val = 28

[[record]]
mol_smiles = "CC(C)(C)c1ccc(C(=O)N/N=C/c2ccccc2OCc2ccccc2)cc1"
limit_operator = ">"
val = 10

[[record]]
mol_smiles = "O=C(N/N=C/c1c2ccccc2cc2ccccc12)c1cc2ccccc2cc1O"
limit_operator = "="
val = 0.57

[[record]]
mol_smiles = "O=C(N/N=C/c1ccccc1O)c1ccncc1"
limit_operator = ">"
val = 100

[[record]]
mol_smiles = "O=C(N/N=C/c1ccccc1O)c1cc2ccccc2cc1O"
limit_operator = "="
val = 0.25


###

biological target: VIM-2 (Escherichia coli, UniProt Q5U7L7)
pIC50: −log10 of the molar value.
attribute-measured: pIC50

[[record]]
mol_smiles = "O=C(N/N=C/c1ccccc1O)c1cccnc1"
limit_operator = "<"
val = 4.00

[[record]]
mol_smiles = "O=C(N/N=C/c1cccc(Oc2ccccc2)c1)c1cc2ccccc2cc1O"
limit_operator = "="
val = 5.07

[[record]]
mol_smiles = "CC(C)(C)c1ccc(C(=O)N/N=C/c2cccc(Oc3ccccc3)c2)cc1"
limit_operator = "="
val = 4.62

[[record]]
mol_smiles = "O=C(N/N=C/c1ccccc1O)c1ccc2ccccc2c1"
limit_operator = "="
val = 4.45

[[record]]
mol_smiles = "CC(C)(C)c1ccc(C(=O)N/N=C/c2ccccc2[N+](=O)[O-])cc1"
limit_operator = "<"
val = 5.00

[[record]]
mol_smiles = "CC(C)(C)c1ccc(C(=O)N/N=C/c2ccccc2O)cc1"
limit_operator = "="
val = 4.74

[[record]]
mol_smiles = "O=C(N/N=C/c1ccccc1O)c1ccccc1O"
limit_operator = "<"
val = 4.40

[[record]]
mol_smiles = "O=C(N/N=C/c1ccccc1O)c1ccncc1"
limit_operator = "<"
val = 4.00


###

target: IMP-1 (Serratia marcescens, UniProt P52699); construct: made in house; host or cells: E. coli (pCIP4 plasmid from Dr. M. Galleni); assay: biochemical; settings: IC50 (μM) class B IMP-1, nitrocefin 100 μM, 50 mM Hepes pH 7.3
Sequence (P52699 19-246 limits assumed): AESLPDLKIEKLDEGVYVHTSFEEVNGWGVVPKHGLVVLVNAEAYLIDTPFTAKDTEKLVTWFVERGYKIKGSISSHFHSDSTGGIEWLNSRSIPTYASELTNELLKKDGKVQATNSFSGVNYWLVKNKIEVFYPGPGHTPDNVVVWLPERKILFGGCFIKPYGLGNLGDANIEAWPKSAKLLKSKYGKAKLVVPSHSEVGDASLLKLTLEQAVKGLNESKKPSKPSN
Kindly apply the following: true (1) if IC50 is less than 5 µM, false (0) in every other case.

[[record]]
molecule = "O=C(N/N=C/c1ccccc1O)c1ccncc1 [Compound 14]"
classification = "false (0)"

[[record]]
molecule = "CC(C)(C)c1ccc(C(=O)N/N=C/c2c(O)ccc3ccccc23)cc1 [Compound 4]"
classification = "true (1)"

[[record]]
molecule = "O=C(N/N=C/c1ccccc1O)c1ccc2ccccc2c1 [Compound 2]"
classification = "false (0)"

[[record]]
molecule = "CC(C)(C)c1ccc(C(=O)N/N=C/c2ccccc2[N+](=O)[O-])cc1 [Compound 12]"
classification = "false (0)"

[[record]]
molecule = "O=C(N/N=C/c1ccccc1O)c1ccccc1O [Compound 15]"
classification = "false (0)"

[[record]]
molecule = "CC(C)(C)c1ccc(C(=O)N/N=C/c2ccccc2O)cc1 [Compound 5]"
classification = "false (0)"

[[record]]
molecule = "O=C(N/N=C/c1cccc(Oc2ccccc2)c1)c1cc2ccccc2cc1O [Compound 7]"
classification = "false (0)"

[[record]]
molecule = "CC(C)(C)c1ccc(C(=O)N/N=C/c2ccccc2OCc2ccccc2)cc1 [Compound 10]"
classification = "true (1)"

[[record]]
molecule = "O=C(N/N=C/c1c2ccccc2cc2ccccc12)c1cc2ccccc2cc1O [Compound 6]"
classification = "true (1)"

[[record]]
molecule = "CC(C)(C)c1ccc(C(=O)N/N=C/c2ccc3c(c2)OCO3)cc1 [Compound 11]"
classification = "false (0)"

[[record]]
molecule = "O=C(N/N=C/c1ccccc1O)c1cc2ccccc2cc1O [Compound 3]"
classification = "false (0)"

[[record]]
molecule = "CC(C)(C)c1ccc(C(=O)N/N=C/c2cccc(Oc3ccccc3)c2)cc1 [Compound 8]"
classification = "false (0)"

[[record]]
molecule = "O=C(N/N=C/c1ccccc1O)c1cccnc1 [Compound 13]"
classification = "false (0)"


###

biological target: OXA-10 (Pseudomonas aeruginosa, UniProt P14489); construct: made in house; host or cells: E. coli (pEt24a(+) plasmid from Dr. S. Mobashery); assay: biochemical; format: biochemical
Sequence (P14489 20-266): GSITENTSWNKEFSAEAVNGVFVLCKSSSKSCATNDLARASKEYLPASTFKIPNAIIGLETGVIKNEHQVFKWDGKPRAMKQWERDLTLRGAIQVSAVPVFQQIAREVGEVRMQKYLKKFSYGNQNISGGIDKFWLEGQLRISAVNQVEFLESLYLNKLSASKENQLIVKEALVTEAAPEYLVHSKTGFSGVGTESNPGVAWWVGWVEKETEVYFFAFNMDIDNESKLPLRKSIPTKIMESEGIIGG
pIC50: −log10 of the molar value.
Reported pIC50 values are given for each entry in this list.
attribute-measured: pIC50

[[record]]
mol_smiles = "O=C(N/N=C/c1ccccc1O)c1ccc2ccccc2c1"
attribute_measured = "pIC50"
limit_operator = "="
val = 4.82

[[record]]
mol_smiles = "CC(C)(C)c1ccc(C(=O)N/N=C/c2cccc(Oc3ccccc3)c2)cc1"
attribute_measured = "pIC50"
limit_operator = "="
val = 4.99

[[record]]
mol_smiles = "O=C(N/N=C/c1cccc(Oc2ccccc2)c1)c1cc2ccccc2cc1O"
attribute_measured = "pIC50"
limit_operator = "="
val = 5.74

[[record]]
mol_smiles = "O=C(N/N=C/c1c2ccccc2cc2ccccc12)c1cc2ccccc2cc1O"
attribute_measured = "pIC50"
limit_operator = "="
val = 5.55

[[record]]
mol_smiles = "CC(C)(C)c1ccc(C(=O)N/N=C/c2ccc3c(c2)OCO3)cc1"
attribute_measured = "pIC50"
limit_operator = "<"
val = 5.00

[[record]]
mol_smiles = "O=C(N/N=C/c1ccccc1O)c1cc2ccccc2cc1O"
attribute_measured = "pIC50"
limit_operator = "="
val = 5.41

[[record]]
mol_smiles = "CC(C)(C)c1ccc(C(=O)N/N=C/c2ccccc2[N+](=O)[O-])cc1"
attribute_measured = "pIC50"
limit_operator = "<"
val = 5.00

[[record]]
mol_smiles = "CC(C)(C)c1ccc(C(=O)N/N=C/c2ccccc2OCc2ccccc2)cc1"
attribute_measured = "pIC50"
limit_operator = "<"
val = 5.00

[[record]]
mol_smiles = "O=C(N/N=C/c1ccccc1O)c1ccncc1"
attribute_measured = "pIC50"
limit_operator = "<"
val = 4.00


###

Reported pIC50 values are given for each entry in this list.
target: OXA-10 (Pseudomonas aeruginosa); test: biochemical
pIC50: −log10 of the molar value.
attribute-measured: pIC50

[[record]]
mol_smiles = "CC(C)(C)c1ccc(C(=O)N/N=C/c2ccccc2O)cc1"
limit_operator = "="
val = 4.89

[[record]]
mol_smiles = "O=C(N/N=C/c1ccccc1O)c1cccnc1"
limit_operator = "<"
val = 4.00

[[record]]
mol_smiles = "CC(C)(C)c1ccc(C(=O)N/N=C/c2c(O)ccc3ccccc23)cc1"
limit_operator = "="
val = 5.77

[[record]]
mol_smiles = "O=C(N/N=C/c1ccccc1O)c1ccccc1O"
limit_operator = "<"
val = 4.40


###

target: VIM-2 (Escherichia coli, UniProt Q5U7L7); construct: made in house; host or cells: E. coli DH10B (pNOR,2001 plasmid from Dr. P. Nordmann); test: biochemical; type: biochemical
attribute-measured: inhibition of VIM-2 (in words)

[[record]]
mol_smiles = "O=C(N/N=C/c1ccccc1O)c1ccc2ccccc2c1"
val = "inhibited"

[[record]]
mol_smiles = "CC(C)(C)c1ccc(C(=O)N/N=C/c2ccccc2O)cc1"
val = "inhibited"

[[record]]
mol_smiles = "O=C(N/N=C/c1ccccc1O)c1cc2ccccc2cc1O"
val = "inhibited"

[[record]]
mol_smiles = "CC(C)(C)c1ccc(C(=O)N/N=C/c2c(O)ccc3ccccc23)cc1"
val = "inhibited"


###

biological target: IMP-1 (Serratia marcescens); construct: made in house; host or cells: E. coli (pCIP4 plasmid from Dr. M. Galleni); assay: biochemical
attribute-measured: inhibition of IMP-1 (in words)

[[record]]
compound = "CC(C)(C)c1ccc(C(=O)N/N=C/c2ccccc2O)cc1 [Compound 5]"
val = "inhibited"

[[record]]
compound = "CC(C)(C)c1ccc(C(=O)N/N=C/c2c(O)ccc3ccccc23)cc1 [Compound 4]"
val = "inhibited"

[[record]]
compound = "O=C(N/N=C/c1ccccc1O)c1cc2ccccc2cc1O [Compound 3]"
val = "inhibited"

[[record]]
compound = "O=C(N/N=C/c1ccccc1O)c1ccc2ccccc2c1 [Compound 2]"
val = "inhibited"

